- targetSystem: HLA-DR7 (DRB1*0701) (human)
- assayRemarks: competition ELISA, tracer biotin-YKL
measureName: relative binding activity

Which relative binding activity reading was recorded for the binder RGFLLLTLLALLALT (synthetic 15-mer of the human midkine precursor; also called MDK2; peptide 4-18) [MDK 4-18] ?
20 IC50 ratio to reference peptide

Look up relative binding activity for this binder: LTLLALLALTSAVAK (synthetic 15-mer of the human midkine precursor; also called MDK3; peptide 9-23) [MDK 9-23]
13 IC50 ratio to reference peptide

Need relative binding activity of QTQRIRCRVPCNWKK (also called MDK9) [MDK 64-78] , thanks.
2070 IC50 ratio to reference peptide

Quick check: relative binding activity of ETIRVTKPCTPKTKA (also called MDK18) [MDK 119-133] ?
819 IC50 ratio to reference peptide

Give the measured relative binding activity of LLALTSAVAKKKDKV (synthetic 15-mer of the human midkine precursor; also called MDK4; peptide 14-28) [MDK 14-28] .
590 IC50 ratio to reference peptide

If you can, please state the reported relative binding activity value of MQHRGFLLLTLLALL (synthetic 15-mer of the human midkine precursor; also called peptide 1-15) [MDK 1-15] .
49 IC50 ratio to reference peptide
